# experiment_notes: viability gain of MRP-1-high H69AR cells under doxorubicin, pilot screen, MRP-1 activator project, CellTiter-Glo, duplicate (AID 807);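 note: compound pretreatment 18-22 h then 72 h combined with doxorubicin; 0% = doxorubicin alone and 100% = vehicle without doxorubicin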
# measurement_parameters: H69AR viability with doxorubicin, CellTiter-Glo luminescence; at 10 µM; stronger effect = higher value
Please provide measured viability increase for the entries that follow.
The answer is to be given in %; state only the numeric part.

Request: Could you share which viability increase value was measured for c1ccc(-c2cnn3nnnc3n2)cc1 ?
Result: -1.17

Request: What about CCOc1ccc(NC(=O)CSc2nnc(Cc3cccn3C)n2-c2ccc(F)cc2)cc1 ?
Result: -4.64

Request: What about O=C1c2ccccc2C(=O)C1c1ccncc1 ?
Result: -1.88

Request: What about CC(=O)CCC(=O)NCCc1ccccc1F ?
Result: 0.02

Request: What about CCCCn1c(CCCNC(=O)CC)nc2ccccc21 ?
Result: -4.51

Request: What about CCCCOC(=O)Nc1nc(CC(=O)OCC)cs1 ?
Result: 1.05

Request: What about CCOc1ccccc1NC(=O)CCS(=O)(=O)c1cccc2nonc12 ?
Result: -4.44

Request: What about COc1ccc(N2CCN(C(=O)C3CCCN(S(=O)(=O)c4cccc5cccnc45)C3)CC2)cc1 (stereo unspecified) ?
Result: -3.75

Request: What about O=C(Cn1c(S(=O)(=O)Cc2ccccc2)nc2ccccc21)N1CCCCC1 ?
Result: -6.5

Request: What about CCOc1ccc(NS(=O)(=O)c2ccc3[nH]c(=O)oc3c2)cc1 ?
Result: 1.01

Request: What about CC(=O)Oc1cccc(N2C(=O)C3C(C2=O)C2C=CC3C23CC3)c1 (stereo unspecified) ?
Result: -0.99

Request: What about COCCNC(=O)C1CCN(S(=O)(=O)c2ccccc2)CC1 ?
Result: -1.38

Request: What about c1ccc(Cn2ncc3c(N4CCCCC4)ncnc32)cc1 ?
Result: -0.97

Request: What about Cc1nc(CNS(=O)(=O)c2ccc3ccccc3c2)cs1 ?
Result: -1.37

Request: What about Cn1c(=O)c2nc(-c3ccc(Cl)cc3Cl)oc2c2ccccc21 ?
Result: -3.1

Request: What about COC(=O)c1sc2ccccc2c1N ?
Result: -3.26

Request: What about CC(C)C(=O)Nc1ccc(Nc2ccccc2)cc1 ?
Result: 0.79

Request: What about O=C(NC1CCCc2ccccc21)C1CCN(c2c(N3CCCC3)c(=O)c2=O)CC1 (stereo unspecified) ?
Result: -3.06

Request: What about COc1ccccc1N1CCN(C(=O)c2ccc(Br)s2)CC1 ?
Result: -1.58

Request: What about O=C(c1ccc(CS(=O)(=O)c2ccc(Br)cc2)o1)N1CCCCCC1 ?
Result: -2.25

Request: What about CCOc1ccc(C2c3c(oc4ccccc4c3=O)C(=O)N2c2ccc(C)cn2)cc1OC (stereo unspecified) ?
Result: -4.09

Request: What about COC(=O)c1cc(=O)nc2scc(C)n12 ?
Result: -0.3

Request: What about CCc1cc2c(=O)c(-c3nc4ccccc4[nH]3)coc2c(CN2CCCC(C)C2)c1O (stereo unspecified) ?
Result: -0.47

Request: What about COc1ccc(-c2nc(=S)[nH][nH]2)cc1 ?
Result: -1.62

Request: What about Cc1cc(C)nc(SCC(=O)Oc2ccc3oc(=O)cc(C)c3c2)n1 ?
Result: -3.67

Request: What about CCOC(=O)c1[nH]c2cc(OC)c(OC)cc2c1NC(=O)c1ccc2c(c1)OCO2 ?
Result: -1.41

Request: What about O=C1c2ccccc2C(Nc2ccc(S(=O)(=O)N3CCCCC3)cc2)N1c1ccccn1 (stereo unspecified) ?
Result: -4.22

Request: What about CCOC(=O)CSc1nc2ccccc2c(=O)[nH]1 ?
Result: -0.36

Request: What about Cc1ccc(NC(=O)c2cnc3scc(C)n3c2=O)c(C)c1 ?
Result: -3.97

Request: What about CCCCn1c2nc3ccccc3nc2c2c(=N)oc(C)nc21 ?
Result: -4.49

Request: What about Cc1ccccc1N1C(=O)C(Cl)=C(N2CCN(c3ccccc3)CC2)C1=O ?
Result: -2.29

Request: What about O=C1CCC(=O)N1c1cccc(-c2nc3ccccc3o2)c1 ?
Result: 0.42

Request: What about Cc1cc(NC(=O)CSc2nc3c([nH]c4ccccc43)c(=O)n2-c2cccc(C(F)(F)F)c2)no1 ?
Result: -4.01

Request: What about O=C1Nc2ccccc2C(O)(C(=O)NCc2ccc3c(c2)OCO3)N1c1ccccc1 (stereo unspecified) ?
Result: -3.17

Request: What about O=C(NCc1ccc2c(c1)OCO2)c1nnc(Cc2ccc(Cl)cc2)o1 ?
Result: 2.05

Request: What about Cc1cc(N=CC2=C(O)CC(C)(C)CC2=O)no1 ?
Result: 0.49

Request: What about Cc1ccc(NC(=O)CCNS(=O)(=O)c2cccc3nonc23)cc1 ?
Result: -1.47

Request: What about CC(C)(C)Nc1ncnc2c1cnn2-c1ccccc1 ?
Result: 2

Request: What about CCCOc1ccc(C(=O)NCCC(=O)NCCCC(=O)OCC)cc1 ?
Result: 0.2

Request: What about COc1cccc(OCC(=O)N(Cc2nc(-c3ccc(Cl)cc3)no2)C(C)C)c1 ?
Result: 2.88

Request: What about CCC(Oc1ccccc1)C(=O)Nc1cc(C)on1 (stereo unspecified) ?
Result: -0.57

Request: What about CC(=O)c1c(N2CCN(c3ccccc3)CC2)nc(=S)n(-c2ccccc2)c1C ?
Result: -3.16

Request: What about CCOCCCNC(=O)C(NC(=O)CC1NC(=O)NC1=O)c1ccc(Cl)cc1 (stereo unspecified) ?
Result: 0.89

Request: What about Cc1cc(Nc2c(C)cccc2C)n2nc(C)nc2n1 ?
Result: -0.85

Request: What about O=C(Cn1cnc2c(cnn2-c2ccccc2)c1=O)c1ccc(Cl)cc1 ?
Result: 1.75

Request: What about Cc1ccccc1NC(=O)CSc1[nH]c(=O)cc(C)c1C#N ?
Result: -0.42

----------
# experiment_notes: inhibitors of the yeast RAM network, pilot screen, dse1pr::URA3 reporter, 5-FOA selection (AID 869);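 note: 0% = DMSO wells with no growth and 100% = 10 µM 1-NA-PP1 with full growth; RAM network block rescues cells from 5-FOA so hits raise OD615 growth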
# measurement_parameters: S. cerevisiae dse1pr::URA3 5-FOA growth, OD615, 2 d; at 10 µM; stronger effect = higher value; strain carries analog-sensitive mutant Cbk1 kinase
parameter_measured: inhibition (%)
The answer is to be given in %; state only the numeric part.

Request: Could you share which inhibition value was measured for CC1CC(C)CN(C(=O)CSc2nnc(-c3ccc(Cl)cc3)o2)C1 (stereo unspecified) ?
Result: 1.4

Request: What about Brc1ccc(CSc2nnc(-c3ccccn3)n2Cc2ccco2)cc1 ?
Result: 2.53

Request: What about Cn1c(C(=O)NCCCN2CCCC2=O)cc2c(=O)n(C)c3ccccc3c21 ?
Result: 1.69

Request: What about O=C(NCc1ccc(Cl)c(Cl)c1)c1cccnc1 ?
Result: 0.58

Request: What about CCCNC(=O)CS(=O)Cc1nc(-c2ccccc2C)oc1C (stereo unspecified) ?
Result: -0.325

Request: What about COc1ccc(NC(=O)Nc2nnc(N3CCC(C)CC3)s2)cc1OC ?
Result: 1.59

----------
# experiment_notes: growth suppression of PTEN-deleted HCT116, pilot screen, cell-based, HCT116 clonal line, CellTiter-Glo (AID 824);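 note: 0% = 20 µM Hyamine control and 100% = vehicle cell control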
# measurement_parameters: 60 h, at 10 µM, stronger effect = lower value
Results filed as inconclusive are left out.
parameter_measured: viability (%)
The answer is to be given in %; state only the numeric part.

Request: Could you share which viability value was measured for COc1ccc(-c2nc(=S)[nH][nH]2)cc1 ?
Result: 89

Request: What about CCOC(=O)N1CCN(c2c(N3CCOCC3)c(=O)c2=O)CC1 ?
Result: 97.2

Request: What about NC(=O)CSc1nc2ccccc2n1-c1ccccc1 ?
Result: 97.5

Request: What about C=CCn1c2ccccc2c2nnc(SCN3C(=O)c4ccccc4C3=O)nc21 ?
Result: 93.7

Request: What about COC(=O)CCc1n[nH]c(=O)[nH]c1=O ?
Result: 102

Request: What about COc1ccccc1NC=C1C(=O)OC(C)(C)OC1=O ?
Result: 101

Request: What about CCOc1ccc(C(C)NC(=O)CCC(=O)O)cc1 (configuration not stated) ?
Result: 89

Request: What about CCOC(=O)CSc1n[nH]c(-c2ccco2)n1 ?
Result: 102

Request: What about CCOC(=O)c1[nH]c(C)c(C(=O)N(CC)CC)c1C ?
Result: 107

Request: What about CC(C)C(C(=O)NC(C)(C)C)N1C(=O)c2ccccc2C1=O (configuration not stated) ?
Result: 101

Request: What about CCOC(=O)N1CCN(C(=O)CS(=O)Cc2nc(-c3ccc(C)cc3)oc2C)CC1 (configuration not stated) ?
Result: 92.1

Request: What about CC(=O)Nc1cc2ccc(OC(C)=O)cc2oc1=O ?
Result: 93.8

----------
# experiment_notes: OD615 S. cerevisiae growth inhibition, permissive medium, pilot counter-assay, permissive growth control for S. cerevisiae lifespan shortening project (AID 705)
# measurement_parameters: OD615, 24 h, at 10 µM, stronger effect = higher value
parameter_measured: growth inhibition (%)
The answer is to be given in %; state only the numeric part.

Request: Could you share which growth inhibition value was measured for COc1ccc(NCCNc2ccc(OC)cc2)cc1 ?
Result: 5.4

Request: What about N#CCCN1CCN(S(=O)(=O)c2ccc(S(=O)(=O)N3CCCC3)cc2)CC1 ?
Result: 0.995

Request: What about O=c1cc(O)c2c(=O)n(-c3ccccc3)c3ccccc3c2o1 ?
Result: 8.67

Request: What about CCN1C(=O)c2ccccc2S(=O)c2ccc(C(=O)N3CCN(C(=O)c4ccco4)CC3)cc21 (stereo unspecified) ?
Result: -1.51

Request: What about Cc1ccc(-n2nnc3c(=O)n(CC(=O)N4CCOCC4)cnc32)cc1 ?
Result: -0.37

Request: What about COc1ccc(C2C(C(=O)Nc3ccccn3)=C(C)Nc3ncnn32)c(OC)c1 (stereo unspecified) ?
Result: -8.54

Request: What about CC(NC(=O)c1cccnc1)C(c1cccs1)N1CCN(C)CC1 (stereo unspecified) ?
Result: -4.91

Request: What about C=CCn1c(CSc2nc3ccccc3s2)nnc1SCC(=O)OCC ?
Result: -1.57

Request: What about CCOc1cccc(C2c3c(oc4cc(C)c(C)cc4c3=O)C(=O)N2CCCN(C)C)c1 (stereo unspecified) ?
Result: 1.31

Request: What about O=C(c1ccc(COc2ccccc2Cl)o1)N1CCN(c2ccccc2)CC1 ?
Result: -15.6

Request: What about COc1ccccc1-c1coc2cc(O)cc(O)c2c1=O ?
Result: 3.81
